protocol summary: AUC (0-infinity) in monkey at 3 mg/kg, iv
Format: ADME, organism-based, Macaca mulatta
Parameters: dose 3 mg/kg, route intravenous, time infinity
details: rhesus monkey, plasma

[
  {
    "smiles data": "Cc1coc2ccc(N3C[C@@]4(CN5CCC4CC5)OC3=O)cc12",
    "AUC(0-inf), ng·h/mL": 732
  }
]

---

subject of test: D(2) dopamine receptor (Homo sapiens, UniProt P14416)
Sequence (P14416 whole entry): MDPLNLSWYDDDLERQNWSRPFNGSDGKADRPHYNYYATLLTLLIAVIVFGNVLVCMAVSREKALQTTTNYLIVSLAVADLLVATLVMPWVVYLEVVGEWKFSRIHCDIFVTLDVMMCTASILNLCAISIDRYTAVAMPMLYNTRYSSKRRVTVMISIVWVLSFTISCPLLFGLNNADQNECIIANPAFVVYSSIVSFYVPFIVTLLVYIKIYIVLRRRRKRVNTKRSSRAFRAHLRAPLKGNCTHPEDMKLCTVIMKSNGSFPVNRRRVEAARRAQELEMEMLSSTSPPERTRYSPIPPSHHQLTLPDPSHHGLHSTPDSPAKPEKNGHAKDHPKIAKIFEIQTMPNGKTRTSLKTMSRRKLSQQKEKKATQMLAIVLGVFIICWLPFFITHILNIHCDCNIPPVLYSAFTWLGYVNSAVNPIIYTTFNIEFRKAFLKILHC
protocol summary: Binding affinity to D2 receptor
measurement name: IC50

[
  {
    "smiles data": "Cc1coc2ccc(N3C[C@@]4(CN5CCC4CC5)OC3=O)cc12",
    "subject of test": "D(2) dopamine receptor (Homo sapiens, UniProt P14416)",
    "assay value": "> 10 µM"
  }
]

---

subject of test: Neuronal acetylcholine receptor; alpha4/beta2 (Rattus norvegicus, UniProt P09483+P12390)
Sequence (P09483 whole entry): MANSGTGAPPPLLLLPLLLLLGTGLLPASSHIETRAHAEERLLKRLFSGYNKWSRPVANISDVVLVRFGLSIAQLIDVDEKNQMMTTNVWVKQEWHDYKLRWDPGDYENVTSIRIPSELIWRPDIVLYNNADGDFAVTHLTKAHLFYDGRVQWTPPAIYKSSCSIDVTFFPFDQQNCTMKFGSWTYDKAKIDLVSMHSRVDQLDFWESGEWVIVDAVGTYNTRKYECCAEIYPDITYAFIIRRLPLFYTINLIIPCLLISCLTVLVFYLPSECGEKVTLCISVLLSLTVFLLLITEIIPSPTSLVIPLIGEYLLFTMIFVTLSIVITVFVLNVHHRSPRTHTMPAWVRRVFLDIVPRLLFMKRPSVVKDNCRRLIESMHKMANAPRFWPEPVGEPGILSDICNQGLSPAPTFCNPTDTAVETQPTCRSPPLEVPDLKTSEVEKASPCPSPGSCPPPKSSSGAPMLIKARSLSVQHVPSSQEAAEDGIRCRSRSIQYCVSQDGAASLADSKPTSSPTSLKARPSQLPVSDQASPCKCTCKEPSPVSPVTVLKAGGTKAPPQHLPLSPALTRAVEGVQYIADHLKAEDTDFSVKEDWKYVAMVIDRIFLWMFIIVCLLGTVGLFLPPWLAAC
Sequence (P12390 whole entry): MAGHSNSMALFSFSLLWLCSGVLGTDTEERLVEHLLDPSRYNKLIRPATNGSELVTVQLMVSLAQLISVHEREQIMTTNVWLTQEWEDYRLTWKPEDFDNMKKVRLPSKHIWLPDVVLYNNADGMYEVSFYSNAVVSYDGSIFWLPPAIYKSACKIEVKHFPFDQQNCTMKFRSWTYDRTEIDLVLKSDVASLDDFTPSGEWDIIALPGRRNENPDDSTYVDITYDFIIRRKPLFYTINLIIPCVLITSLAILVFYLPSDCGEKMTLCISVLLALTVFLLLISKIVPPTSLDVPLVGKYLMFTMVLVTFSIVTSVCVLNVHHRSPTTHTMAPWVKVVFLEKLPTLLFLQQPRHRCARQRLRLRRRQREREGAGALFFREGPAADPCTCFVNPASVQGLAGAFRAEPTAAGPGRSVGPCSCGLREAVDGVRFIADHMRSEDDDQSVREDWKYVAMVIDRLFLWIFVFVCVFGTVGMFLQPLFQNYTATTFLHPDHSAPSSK
protocol summary: Inhibition of [3H]Cytisine binding to alpha-4-beta-2 nACh receptor in rat cerebral cortex membrane

[
  {
    "smiles data": "Cc1coc2ccc(N3C[C@@]4(CN5CCC4CC5)OC3=O)cc12",
    "subject of test": "Neuronal acetylcholine receptor; alpha4/beta2 (Rattus norvegicus, UniProt P09483+P12390)",
    "IC50": "> 10 µM"
  }
]

---

subject of test: Glutamate [NMDA] receptor
protocol summary: Binding affinity to NMDA receptor glycine site
Format: protein-complex assay, Homo sapiens
pIC50: −log10 of the molar value.

[
  {
    "smiles data": "Cc1coc2ccc(N3C[C@@]4(CN5CCC4CC5)OC3=O)cc12",
    "pIC50": "< 5.00"
  }
]

---

protocol summary: Half life in rat at 3 mg/kg, iv
Type: ADME, organism-based
Parameters: dose 3 mg/kg, route intravenous
details: in vivo

[
  {
    "smiles data": "Cc1coc2ccc(N3C[C@@]4(CN5CCC4CC5)OC3=O)cc12",
    "half-life": "3.3 h"
  }
]

---

subject of test: D(4) dopamine receptor (Homo sapiens, UniProt P21917)
Sequence (P21917 whole entry): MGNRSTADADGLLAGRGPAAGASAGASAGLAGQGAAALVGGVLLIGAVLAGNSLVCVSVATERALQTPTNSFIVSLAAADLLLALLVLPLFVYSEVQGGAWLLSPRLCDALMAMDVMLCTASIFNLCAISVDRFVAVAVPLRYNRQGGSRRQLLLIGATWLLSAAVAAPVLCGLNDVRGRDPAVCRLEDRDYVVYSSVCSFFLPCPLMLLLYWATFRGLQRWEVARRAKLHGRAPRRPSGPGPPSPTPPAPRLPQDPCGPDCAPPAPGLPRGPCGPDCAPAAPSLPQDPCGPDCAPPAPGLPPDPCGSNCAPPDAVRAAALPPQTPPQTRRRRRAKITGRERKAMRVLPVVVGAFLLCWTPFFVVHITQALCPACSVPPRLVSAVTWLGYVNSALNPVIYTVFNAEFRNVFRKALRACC
pIC50: −log10 of the molar value.
measurement name: pIC50

[
  {
    "smiles data": "Cc1coc2ccc(N3C[C@@]4(CN5CCC4CC5)OC3=O)cc12",
    "assay value": "< 5.00"
  }
]

---

protocol summary: Oral bioavailability in rat at 10 mg/kg, po
Type: ADME, organism-based
details: in vivo
measurement name: bioavailability (%)

[
  {
    "smiles data": "Cc1coc2ccc(N3C[C@@]4(CN5CCC4CC5)OC3=O)cc12",
    "assay value": 10.5
  }
]
